Tested on: DNA
ASSAY_EXPLANATION: Binding affinity to calf thymus DNA assessed as melting temperature at pH 7.4 by thermal denaturation assay
Format: nucleic-acid assay
TEST_PARAMETERS: Bos taurus
MEASUREMENT_NAME: Tm (°C)

In [3]: df
Out[3]:
                            chemical_smiles  tgt  reading
0  Brc1ccc(/C=C/CSSC/C=C/c2ccc(Br)cc2Br)c(Br)c1  DNA       81
1        Clc1ccccc1/C=C/CSSC/C=C/c1ccccc1Cl  DNA       81
2        Brc1ccccc1/C=C/CSSC/C=C/c1ccccc1Br  DNA       80
3  Clc1ccc(/C=C/CSSC/C=C/c2ccc(Cl)cc2Cl)c(Cl)c1  DNA       81
4      Fc1ccc(/C=C/CSSC/C=C/c2ccc(F)cc2)cc1  DNA       79
5  FC(F)(F)c1ccc(/C=C/CSSC/C=C/c2ccc(C(F)(F)F)cc2)cc1  DNA       78
6  O=[N+]([O-])c1ccc(/C=C/CSSC/C=C/c2ccc([N+](=O)[O-])cc2)cc1  DNA       80
